Provenance of the data: patent US20260193366A1

# MEASURED_ON: T1, hIL-4Rα on cells (human, UniProt P24394 26-825)
# T1 sequence: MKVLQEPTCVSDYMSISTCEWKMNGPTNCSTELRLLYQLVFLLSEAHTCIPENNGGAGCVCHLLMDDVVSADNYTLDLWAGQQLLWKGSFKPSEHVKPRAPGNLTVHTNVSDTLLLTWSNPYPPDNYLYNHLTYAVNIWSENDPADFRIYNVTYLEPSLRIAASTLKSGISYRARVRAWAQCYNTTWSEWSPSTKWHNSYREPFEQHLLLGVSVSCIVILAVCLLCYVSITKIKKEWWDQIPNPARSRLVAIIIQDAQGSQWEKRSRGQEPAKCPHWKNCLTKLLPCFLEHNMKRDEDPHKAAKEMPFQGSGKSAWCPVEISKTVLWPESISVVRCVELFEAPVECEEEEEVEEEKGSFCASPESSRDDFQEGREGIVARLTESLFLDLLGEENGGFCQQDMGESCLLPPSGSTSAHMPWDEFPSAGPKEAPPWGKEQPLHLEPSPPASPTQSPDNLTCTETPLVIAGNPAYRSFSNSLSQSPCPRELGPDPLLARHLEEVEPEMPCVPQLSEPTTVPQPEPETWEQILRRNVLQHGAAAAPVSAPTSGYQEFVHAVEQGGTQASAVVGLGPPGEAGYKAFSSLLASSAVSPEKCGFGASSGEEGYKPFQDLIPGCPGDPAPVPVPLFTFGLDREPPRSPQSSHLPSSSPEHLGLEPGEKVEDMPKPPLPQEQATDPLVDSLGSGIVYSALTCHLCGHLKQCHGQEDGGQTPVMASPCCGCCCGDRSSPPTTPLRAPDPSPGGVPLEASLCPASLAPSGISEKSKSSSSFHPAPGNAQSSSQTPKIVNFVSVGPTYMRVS
# ASSAY_OVERVIEW: cell-based or functional assay
EXPERIMENTAL_ENDPOINT: Relative Inhibition of IL-4 induced TARC IC50

BINDER	RESULT
Construct 1 (mAb410) (antibody, IgG4, V domains shown, VH/VL only) VH: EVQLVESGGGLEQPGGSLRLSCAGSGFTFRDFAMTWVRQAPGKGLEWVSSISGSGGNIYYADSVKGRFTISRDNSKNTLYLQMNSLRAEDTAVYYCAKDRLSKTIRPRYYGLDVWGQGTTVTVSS VL: DIVMTQSPLSLPVTPGEPASISCRSSQSVLYSIGYNYVDWYLQKSGQSPQLLIYLGSKRASGVPDRFSGSGSGTDFTLKISRVEAEDVGFYYCMQSLDTPYTFGQGTKLEIK	0.427 relative to dupilumab

// next item, Relative Inhibition of IL-4 induced TARC IC50 requested
Per the records, this binder ( Construct 5 (mAb414) (antibody, IgG4, V domains shown, VH/VL only) VH: EVQLVESGGGLEQPGGSLRLSCAGSGFTFRDFAMTWVRQAPGKGLEWVSSISGSGDNIYYADSVKGRFTISRDNSKNTLYLQMNSLRAEDTAVYYCAKDRVSITIRPRYYGLDVWGQGTTVTVSS VL: DIVMTQSPLSLPVTPGEPASISCRSSQSLLYSIGKNYVDWYLQKSGQSPQLLIYLGNKRASGVPDRFSGSGSGTDFTLKISRVEAEDVGFYYCMQSLQTPYVFGQGTKLEIK ) has Relative Inhibition of IL-4 induced TARC IC50 equal to 0.552 relative to dupilumab
